Molecular target: PIM3 (human) (UniProt Q86V86)
Assay: KINOMEscan competition binding
Details: compound 10.0 µM
measured.property: kinase still bound, per cent of control (%)
Answers are plain numbers, in %.

[[record]]
smiles_entry = "CCN1CCN(Cc2cc(NC(=O)c3cccc4cc(-c5ccc(/C=C6\\SC(=O)NC6=O)o5)ccc34)cc(C(F)(F)F)c2)CC1"
units_symbol = "%"
observed_result = 7

[[record]]
smiles_entry = "N=C1NC(=O)/C(=C/c2ccc(-c3ccc(S(N)(=O)=O)cc3)o2)S1"
units_symbol = "%"
observed_result = 4.8

[[record]]
smiles_entry = "NC1=N/C(=C\\c2ccc(-c3ccc(S(N)(=O)=O)cc3)o2)C(=O)N1"
units_symbol = "%"
observed_result = 6

[[record]]
smiles_entry = "N=C1NC(=O)/C(=C/c2c[nH]c(=O)c(-c3ccc4cc[nH]c4c3)c2)S1"
units_symbol = "%"
observed_result = 12


Now examine the next entry.
## Input Name the reported kinase still bound, per cent of control value associated with the compound `N=C1NC(=O)/C(=C/c2ccc(-c3ccc(C(=O)Nc4ccc(N5CCNCC5)cc4)cc3O)o2)S1`
## Output 9
